Biological target: Endothelin-1 receptor (Homo sapiens)
Sequence (P25101 whole entry): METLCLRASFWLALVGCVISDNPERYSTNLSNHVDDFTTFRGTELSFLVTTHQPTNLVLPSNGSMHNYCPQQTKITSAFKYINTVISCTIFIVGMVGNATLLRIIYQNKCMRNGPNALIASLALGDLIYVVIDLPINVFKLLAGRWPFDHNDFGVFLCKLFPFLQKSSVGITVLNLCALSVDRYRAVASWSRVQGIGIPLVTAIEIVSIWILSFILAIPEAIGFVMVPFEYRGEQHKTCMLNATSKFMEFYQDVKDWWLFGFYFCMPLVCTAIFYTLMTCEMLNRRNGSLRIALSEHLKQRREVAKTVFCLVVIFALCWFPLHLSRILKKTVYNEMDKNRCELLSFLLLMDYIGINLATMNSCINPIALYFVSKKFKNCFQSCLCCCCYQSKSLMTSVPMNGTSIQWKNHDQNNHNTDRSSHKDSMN
Assay: Inhibitory activity against [125I]ET1 binding to human endothelin A receptor
pIC50: −log10 of the molar value.
endpoint: pIC50

COc1ccc([C@@H]2c3nc(NC(C)C)ccc3[C@H](c3ccc4c(c3)OCO4)[C@H]2C(=O)O)c(CCC(C)(C)O)c1 : 10.19
COc1ccc([C@@H]2c3nc(NC(C)C)ccc3[C@H](c3ccc4c(c3)OCO4)[C@H]2C(=O)O)c(CN(C)C(C)=O)c1 : 10.57
COc1ccc([C@@H]2c3nc(NC(C)C)ccc3[C@H](c3ccc4c(c3)OCO4)[C@H]2C(=O)O)c(CC(C)(C)O)c1 : 10.85
COc1ccc([C@@H]2c3nc(NC(C)C)ccc3[C@H](c3ccc4c(c3)OCO4)[C@H]2C(=O)O)c(CO)c1 : 10.21
COc1ccc([C@@H]2c3nc(NC(C)C)ccc3[C@H](c3ccc4c(c3)OCO4)[C@H]2C(=O)O)c(CCO)c1 : 10.51
COc1ccc([C@@H]2c3nc(NC(C)C)ccc3[C@H](c3ccc4c(c3)OCO4)[C@H]2C(=O)O)c(CC(C)C(=O)N(C)C)c1 (single isomer, unassigned) : 10.85
CCC(CO)Cc1cc(OC)ccc1[C@@H]1c2nc(NC(C)C)ccc2[C@H](c2ccc3c(c2)OCO3)[C@H]1C(=O)O (stereo in doubt; form 1) : 10.35

====

Target: Endothelin receptor, ET-A/ET-B (Homo sapiens) (UniProt P24530+P25101)
Sequence (P24530 whole entry, looked up): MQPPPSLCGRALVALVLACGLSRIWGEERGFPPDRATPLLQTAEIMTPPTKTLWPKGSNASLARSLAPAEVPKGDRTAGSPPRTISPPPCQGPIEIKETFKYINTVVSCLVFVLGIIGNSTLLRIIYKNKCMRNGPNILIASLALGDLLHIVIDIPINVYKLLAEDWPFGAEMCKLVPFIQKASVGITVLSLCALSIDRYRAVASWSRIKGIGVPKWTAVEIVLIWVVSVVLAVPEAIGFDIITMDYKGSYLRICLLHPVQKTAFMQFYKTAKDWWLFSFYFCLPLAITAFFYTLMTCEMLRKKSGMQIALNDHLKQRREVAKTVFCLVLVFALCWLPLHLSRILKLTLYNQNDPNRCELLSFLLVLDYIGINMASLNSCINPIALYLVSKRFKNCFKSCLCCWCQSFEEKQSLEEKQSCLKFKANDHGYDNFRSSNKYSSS
Sequence (P25101 whole entry, looked up): as the sequence (P25101 whole entry) above
Experiment: Selectivity ratio of inhibitory activity towards endothelin receptor A to endothelin receptor B (ETB/ETA)
Assay type: protein assay
endpoint: Selectivity ratio

COc1ccc([C@@H]2c3nc(NC(C)C)ccc3[C@H](c3ccc4c(c3)OCO4)[C@H]2C(=O)O)c(CC(C)CO)c1 (stereo in doubt; form 2) : 860
COc1ccc([C@@H]2c3nc(NC(C)C)ccc3[C@H](c3ccc4c(c3)OCO4)[C@H]2C(=O)O)c(CN(C)C(C)=O)c1 : 1600
CCCOc1cc(OC)ccc1[C@@H]1c2nc(NC(C)C)ccc2[C@H](c2ccc3c(c2)OCO3)[C@H]1C(=O)O : 240
COCC(C)Cc1cc(OC)ccc1[C@@H]1c2nc(NC(C)C)ccc2[C@H](c2ccc3c(c2)OCO3)[C@H]1C(=O)O (stereo in doubt; form 2) : 2300
COc1ccc([C@@H]2c3nc(NC(C)C)ccc3[C@H](c3ccc4c(c3)OCO4)[C@H]2C(=O)O)c(CC(C)C(=O)N(C)C)c1 (stereo in doubt) : 1800
COc1ccc([C@@H]2c3nc(NC(C)C)ccc3[C@H](c3ccc4c(c3)OCO4)[C@H]2C(=O)O)c(CC(O)CO)c1 (single isomer, unassigned) : 550
COc1ccc([C@@H]2c3nc(NC(C)C)ccc3[C@H](c3ccc4c(c3)OCO4)[C@H]2C(=O)O)c(OC(C)C)c1 : 800
CCOc1cc(OC)ccc1[C@@H]1c2nc(NC(C)C)ccc2[C@H](c2ccc3c(c2)OCO3)[C@H]1C(=O)O : 61
COc1ccc([C@@H]2c3nc(NC(C)C)ccc3[C@H](c3ccc4c(c3)OCO4)[C@H]2C(=O)O)c(CCO)c1 : 610
COc1ccc([C@@H]2c3nc(NC(C)C)ccc3[C@H](c3ccc4c(c3)OCO4)[C@H]2C(=O)O)c(CO)c1 : 1000
COc1ccc([C@@H]2c3nc(NC(C)C)ccc3[C@H](c3ccc4c(c3)OCO4)[C@H]2C(=O)O)c(CC(C)CO)c1 (stereo in doubt; form 1) : 1300
COc1ccc([C@@H]2c3nc(NC(C)C)ccc3[C@H](c3ccc4c(c3)OCO4)[C@H]2C(=O)O)c(OCc2ccccc2)c1 : 600
COc1ccc([C@@H]2c3nc(NC(C)C)ccc3[C@H](c3ccc4c(c3)OCO4)[C@H]2C(=O)O)c(OC(C)CO)c1 (stereo in doubt; form 1) : 1700
COc1ccc([C@@H]2c3nc(NC(C)C)ccc3[C@H](c3ccc4c(c3)OCO4)[C@H]2C(=O)O)c(O)c1 : 1300

Attribution: ChEMBL document CHEMBL1147633
